The values you see were collected from patent US9062026B2.

Recorded measurements of pIC50, one per entry
- Subject Of Test: UniProtKB P55072
- Sequence (P55072 whole entry): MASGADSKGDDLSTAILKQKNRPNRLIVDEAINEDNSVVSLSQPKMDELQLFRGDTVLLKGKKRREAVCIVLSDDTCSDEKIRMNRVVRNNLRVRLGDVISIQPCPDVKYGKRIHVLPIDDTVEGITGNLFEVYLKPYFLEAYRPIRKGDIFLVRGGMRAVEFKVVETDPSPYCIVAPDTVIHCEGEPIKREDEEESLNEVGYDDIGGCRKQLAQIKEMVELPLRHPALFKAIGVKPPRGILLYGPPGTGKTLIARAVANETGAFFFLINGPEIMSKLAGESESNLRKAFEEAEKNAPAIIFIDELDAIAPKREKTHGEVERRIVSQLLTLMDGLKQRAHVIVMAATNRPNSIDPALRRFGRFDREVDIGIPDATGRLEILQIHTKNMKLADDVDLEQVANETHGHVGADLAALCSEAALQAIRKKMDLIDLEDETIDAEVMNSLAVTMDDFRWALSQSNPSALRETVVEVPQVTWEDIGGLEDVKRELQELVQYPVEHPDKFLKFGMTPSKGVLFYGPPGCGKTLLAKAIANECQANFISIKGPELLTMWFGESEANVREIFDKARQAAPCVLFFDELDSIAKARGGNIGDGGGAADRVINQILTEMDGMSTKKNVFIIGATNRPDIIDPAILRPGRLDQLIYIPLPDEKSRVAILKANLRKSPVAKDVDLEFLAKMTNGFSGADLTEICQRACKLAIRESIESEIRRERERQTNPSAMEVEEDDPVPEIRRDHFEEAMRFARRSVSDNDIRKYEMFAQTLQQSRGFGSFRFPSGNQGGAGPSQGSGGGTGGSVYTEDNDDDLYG
- Assay Method Text: P97 ATPase biochem assay (ADP Glo)
- Assay type: biochemical
- Protocol Conditions: 20 nM p97, 20 μM ATP, 37° C., 15 minutes; read-out: p97 biochem IC50
pIC50: −log10 of the molar value.

Molecule: CCc1cc2ccccc2n1-c1nc2c(c(NCc3ccccc3)n1)CCCC2
pIC50: > 5.30
--
Molecule: COc1cccc2c(NCc3ccco3)nc(-n3c(N)nc4ccccc43)nc12
pIC50: > 5.30
--
Molecule: Nc1nc2ccccc2n1-c1nc2c(c(NCc3ccccc3)n1)CCC2
pIC50: > 5.70
--
Molecule: Cc1cc2ccccc2n1-c1nc2c(c(NCc3ccccc3)n1)CCCC2
pIC50: > 5.70
--
Molecule: COc1cccc2c(NCc3ccccc3)nc(C3NCc4ccccc43)nc12 (stereo not shown)
pIC50: > 5.30
--
Molecule: Cc1cc2ccccc2n1-c1nc2c(c(NCc3ccccc3)n1)CNC2
pIC50: > 5.70
--
Molecule: CN(C)Cc1cc2ccccc2n1-c1nc2c(c(NCc3ccccc3)n1)CCCC2 [drawing 229]
pIC50: > 5.70
--
Molecule: COc1cccc2c(NCc3ccccc3)nc(N3C(=O)Cc4ccccc43)nc12
pIC50: > 5.70
--
Molecule: NCc1cc2ccccc2n1-c1nc2c(c(NCc3ccccc3)n1)CCCC2 [drawing 219]
pIC50: > 5.70
--
Molecule: COc1cccc2c(NCc3ccccc3)nc(-c3c(C)oc4ccccc34)nc12
pIC50: > 5.70
